Sourced from ChEMBL document CHEMBL3804782

target: Cytochrome P450 3A4 (Homo sapiens, UniProt P08684); assay: Inhibition of CYP3A4 (unknown origin) expressed in baculovirus infected insect cells using benzyloxyresorufin as susbtrate incubated for 45 mins by plate reader analysis in presence of NADP+; type: ADME
Sequence (P08684 whole entry): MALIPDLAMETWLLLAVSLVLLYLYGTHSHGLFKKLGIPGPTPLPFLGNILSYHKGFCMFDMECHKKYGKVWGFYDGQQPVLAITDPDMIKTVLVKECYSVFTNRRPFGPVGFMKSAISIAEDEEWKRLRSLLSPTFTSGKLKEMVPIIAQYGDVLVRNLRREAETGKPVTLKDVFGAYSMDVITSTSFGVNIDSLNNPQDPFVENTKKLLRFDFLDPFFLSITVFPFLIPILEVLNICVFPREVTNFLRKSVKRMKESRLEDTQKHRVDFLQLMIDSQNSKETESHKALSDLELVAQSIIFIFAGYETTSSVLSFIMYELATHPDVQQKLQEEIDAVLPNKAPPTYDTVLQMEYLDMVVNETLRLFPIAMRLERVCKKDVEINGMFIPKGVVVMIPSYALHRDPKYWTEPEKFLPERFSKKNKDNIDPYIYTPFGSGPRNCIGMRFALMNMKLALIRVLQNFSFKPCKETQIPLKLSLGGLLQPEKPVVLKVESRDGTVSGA
PARAMETER MEASURED: IC50

1) COc1cnc(C(=O)Nc2cc(F)c(F)c([C@]3(C)C[C@@H](c4c(C)noc4C)SC(N)=N3)c2)cn1 = > 20 µM

###

experiment: Drug level in rat brain at 10 mg/kg, po after 5 hrs; type: ADME, organism-based; settings: read-out: Drug uptake
PARAMETER MEASURED: concentration at 5 h (µM)

1) COc1cnc(C(=O)Nc2cc(F)c(F)c([C@]3(C)C[C@@H](c4c(C)noc4C)SC(N)=N3)c2)cn1 = 0.42
